meta.source: patent US5780605A

Reported MIC (minimum inhibitory concentration) values for the following molecules.
test system: Streptococcus pyogenes PIU 2548; experiment: in vitro antibacterial activity (MIC), BHI agar dilution; type: cell-based; details: S. pyogenes PIU 2548, 35-37° C., 20 to 24 hours

molecule	target_or_system	MIC (minimum inhibitory concentration)
CC[C@H]1OC(=O)[C@H](C)[C@@H](O[C@H]2C[C@@](C)(OC)[C@@H](O)[C@H](C)O2)[C@H](C)[C@@H](O[C@@H]2O[C@H](C)C[C@H](N(C)C)[C@H]2O)[C@](C)(O)C[C@@H](C)C(=O)[C@H](C)[C@@H](O)[C@]1(C)O [Ery. A, Erythromycin A, reference compound]	Streptococcus pyogenes PIU 2548	6.2
CC[C@H]1OC(=O)[C@H](C)[C@@H](O[C@H]2C[C@@](C)(OC)[C@@H](O)[C@H](C)O2)[C@H](C)[C@@H](O[C@@H]2O[C@H](C)C[C@H](N(C)C)[C@H]2O)[C@@]2(C)C[C@@H](C)C(=NOCO2)[C@H](C)[C@H]2OC(=O)O[C@@]21C	Streptococcus pyogenes PIU 2548	3.1
CC[C@H]1OC(=O)[C@H](C)[C@@H](O[C@H]2C[C@@](C)(OC)[C@@H](O)[C@H](C)O2)[C@H](C)[C@@H](O[C@@H]2O[C@H](C)C[C@H](N(C)C)[C@H]2O)[C@@]2(C)C[C@@H](C)C(=NOCO2)[C@H](C)[C@@H](O)[C@]1(C)O	Streptococcus pyogenes PIU 2548	6.2
CC[C@H]1OC(=O)[C@H](C)C(=O)[C@H](C)[C@@H](O[C@@H]2O[C@H](C)C[C@H](N(C)C)[C@H]2O)[C@@]2(C)C[C@@H](C)C(=NOCO2)[C@H](C)[C@H]2OC(=O)O[C@@]21C	Streptococcus pyogenes PIU 2548	0.78

---

tested on: Mycobacterium smegmafis ATCC 114; experiment: in vitro antibacterial activity (MIC), BHI agar dilution; type: cell-based; details: 35-37° C., 20 to 24 hours
value_kind: MIC (minimum inhibitory concentration)

compound	result
CC[C@H]1OC(=O)[C@H](C)[C@@H](O[C@H]2C[C@@](C)(OC)[C@@H](O)[C@H](C)O2)[C@H](C)[C@@H](O[C@@H]2O[C@H](C)C[C@H](N(C)C)[C@H]2O)[C@@]2(C)C[C@@H](C)C(=NOCO2)[C@H](C)[C@@H](O)[C@]1(C)O [Example 1]	1.56
CC[C@H]1OC(=O)[C@H](C)C(=O)[C@H](C)[C@@H](O[C@@H]2O[C@H](C)C[C@H](N(C)C)[C@H]2O)[C@@]2(C)C[C@@H](C)C(=NOCO2)[C@H](C)[C@H]2OC(=O)O[C@@]21C [Example 3]	25
CC[C@H]1OC(=O)[C@H](C)[C@@H](O[C@H]2C[C@@](C)(OC)[C@@H](O)[C@H](C)O2)[C@H](C)[C@@H](O[C@@H]2O[C@H](C)C[C@H](N(C)C)[C@H]2O)[C@@]2(C)C[C@@H](C)C(=NOCO2)[C@H](C)[C@H]2OC(=O)O[C@@]21C [Example 2]	3.1
CC[C@H]1OC(=O)[C@H](C)[C@@H](O[C@H]2C[C@@](C)(OC)[C@@H](O)[C@H](C)O2)[C@H](C)[C@@H](O[C@@H]2O[C@H](C)C[C@H](N(C)C)[C@H]2O)[C@](C)(O)C[C@@H](C)C(=O)[C@H](C)[C@@H](O)[C@]1(C)O [Ery. A, Erythromycin A, reference compound]	3.1

---

test system: Staphylococcus aureus ATCC 6538P; test: in vitro antibacterial activity (MIC), BHI agar dilution; format: cell-based; details: S. aureus ATCC 6538P, 35-37° C., 20 to 24 hours
The following molecules are listed with their measured MIC (minimum inhibitory concentration) values.
value_kind: MIC (minimum inhibitory concentration)

molecule	quantitative_readout
CC[C@H]1OC(=O)[C@H](C)C(=O)[C@H](C)[C@@H](O[C@@H]2O[C@H](C)C[C@H](N(C)C)[C@H]2O)[C@@]2(C)C[C@@H](C)C(=NOCO2)[C@H](C)[C@H]2OC(=O)O[C@@]21C [Example 3]	3.1
CC[C@H]1OC(=O)[C@H](C)[C@@H](O[C@H]2C[C@@](C)(OC)[C@@H](O)[C@H](C)O2)[C@H](C)[C@@H](O[C@@H]2O[C@H](C)C[C@H](N(C)C)[C@H]2O)[C@@]2(C)C[C@@H](C)C(=NOCO2)[C@H](C)[C@H]2OC(=O)O[C@@]21C [Example 2]	0.39
CC[C@H]1OC(=O)[C@H](C)[C@@H](O[C@H]2C[C@@](C)(OC)[C@@H](O)[C@H](C)O2)[C@H](C)[C@@H](O[C@@H]2O[C@H](C)C[C@H](N(C)C)[C@H]2O)[C@@]2(C)C[C@@H](C)C(=NOCO2)[C@H](C)[C@@H](O)[C@]1(C)O [Example 1]	6.2
CC[C@H]1OC(=O)[C@H](C)[C@@H](O[C@H]2C[C@@](C)(OC)[C@@H](O)[C@H](C)O2)[C@H](C)[C@@H](O[C@@H]2O[C@H](C)C[C@H](N(C)C)[C@H]2O)[C@](C)(O)C[C@@H](C)C(=O)[C@H](C)[C@@H](O)[C@]1(C)O [Ery. A, Erythromycin A, reference compound]	0.2

---

Measured MIC (minimum inhibitory concentration) of individual entries
test system: Staphylococcus aureus A5177; test: in vitro antibacterial activity (MIC), BHI agar dilution; format: cell-based; conditions: S. aureus A5177, 35-37° C., 20 to 24 hours
value_kind: MIC (minimum inhibitory concentration)

molecule	target_or_system	sign_qualifier	quantitative_readout
CC[C@H]1OC(=O)[C@H](C)C(=O)[C@H](C)[C@@H](O[C@@H]2O[C@H](C)C[C@H](N(C)C)[C@H]2O)[C@@]2(C)C[C@@H](C)C(=NOCO2)[C@H](C)[C@H]2OC(=O)O[C@@]21C	Staphylococcus aureus A5177	=	3.1
CC[C@H]1OC(=O)[C@H](C)[C@@H](O[C@H]2C[C@@](C)(OC)[C@@H](O)[C@H](C)O2)[C@H](C)[C@@H](O[C@@H]2O[C@H](C)C[C@H](N(C)C)[C@H]2O)[C@@]2(C)C[C@@H](C)C(=NOCO2)[C@H](C)[C@@H](O)[C@]1(C)O	Staphylococcus aureus A5177	>	100
CC[C@H]1OC(=O)[C@H](C)[C@@H](O[C@H]2C[C@@](C)(OC)[C@@H](O)[C@H](C)O2)[C@H](C)[C@@H](O[C@@H]2O[C@H](C)C[C@H](N(C)C)[C@H]2O)[C@](C)(O)C[C@@H](C)C(=O)[C@H](C)[C@@H](O)[C@]1(C)O [Ery. A, Erythromycin A, reference compound]	Staphylococcus aureus A5177	=	3.1
CC[C@H]1OC(=O)[C@H](C)[C@@H](O[C@H]2C[C@@](C)(OC)[C@@H](O)[C@H](C)O2)[C@H](C)[C@@H](O[C@@H]2O[C@H](C)C[C@H](N(C)C)[C@H]2O)[C@@]2(C)C[C@@H](C)C(=NOCO2)[C@H](C)[C@H]2OC(=O)O[C@@]21C	Staphylococcus aureus A5177	=	3.1

---

tested on: Micrococcus luteus ATCC 9341; test: in vitro antibacterial activity (MIC), BHI agar dilution; format: cell-based; settings: M. luteus ATCC 9341, 35-37° C., 20 to 24 hours
value_kind: MIC (minimum inhibitory concentration)

molecule	quantitative_readout
CC[C@H]1OC(=O)[C@H](C)C(=O)[C@H](C)[C@@H](O[C@@H]2O[C@H](C)C[C@H](N(C)C)[C@H]2O)[C@@]2(C)C[C@@H](C)C(=NOCO2)[C@H](C)[C@H]2OC(=O)O[C@@]21C	0.39
CC[C@H]1OC(=O)[C@H](C)[C@@H](O[C@H]2C[C@@](C)(OC)[C@@H](O)[C@H](C)O2)[C@H](C)[C@@H](O[C@@H]2O[C@H](C)C[C@H](N(C)C)[C@H]2O)[C@@]2(C)C[C@@H](C)C(=NOCO2)[C@H](C)[C@H]2OC(=O)O[C@@]21C	0.1
CC[C@H]1OC(=O)[C@H](C)[C@@H](O[C@H]2C[C@@](C)(OC)[C@@H](O)[C@H](C)O2)[C@H](C)[C@@H](O[C@@H]2O[C@H](C)C[C@H](N(C)C)[C@H]2O)[C@@]2(C)C[C@@H](C)C(=NOCO2)[C@H](C)[C@@H](O)[C@]1(C)O	0.2
CC[C@H]1OC(=O)[C@H](C)[C@@H](O[C@H]2C[C@@](C)(OC)[C@@H](O)[C@H](C)O2)[C@H](C)[C@@H](O[C@@H]2O[C@H](C)C[C@H](N(C)C)[C@H]2O)[C@](C)(O)C[C@@H](C)C(=O)[C@H](C)[C@@H](O)[C@]1(C)O [Ery. A, Erythromycin A, reference compound]	0.05
